- targetUnderTest: AAK1 (amino acids T27-A365) (Homo sapiens (Human), UniProt Q2M2I8)
- Sequence (Q2M2I8 27-365): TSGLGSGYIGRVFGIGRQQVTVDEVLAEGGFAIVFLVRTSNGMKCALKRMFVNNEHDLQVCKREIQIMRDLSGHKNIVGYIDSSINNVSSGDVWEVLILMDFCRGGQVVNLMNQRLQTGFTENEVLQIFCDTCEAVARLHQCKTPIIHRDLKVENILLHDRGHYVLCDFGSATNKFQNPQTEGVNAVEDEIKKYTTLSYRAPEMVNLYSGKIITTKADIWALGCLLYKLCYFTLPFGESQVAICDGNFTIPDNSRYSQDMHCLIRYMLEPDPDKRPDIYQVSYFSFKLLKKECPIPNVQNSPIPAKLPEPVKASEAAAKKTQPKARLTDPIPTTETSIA
- methodDescription: AAK1 pSENs assay
- Format: biochemical
- particulars: ratio of AAK1 pSENs activity to GAK pSENs activity
valueKind: AAK1:GAK pSENs Selectivity

{"compoundString": "C[C@@]1(OC(=O)N2CCN(c3ccn4ncc(-c5cccnc5OC5CC5)c4n3)CC2)CCN(CC(N)=O)C1", "targetUnderTest": "AAK1 (amino acids T27-A365) (Homo sapiens (Human), UniProt Q2M2I8)", "valueKind": "AAK1:GAK pSENs Selectivity", "testValue": "A (A: ≤0.015)"}
{"compoundString": "CN1C[C@@H](OC(=O)N2CCN(c3ccn4ncc(-c5cc(F)cnc5OC5CC5)c4n3)CC2)CC1=O", "targetUnderTest": "AAK1 (amino acids T27-A365) (Homo sapiens (Human), UniProt Q2M2I8)", "valueKind": "AAK1:GAK pSENs Selectivity", "testValue": "A (A: ≤0.015)"}
{"compoundString": "COC(=O)N1CC(Oc2ncccc2-c2cnn3ccc(N4CCN(C(=O)O[C@@H]5CC(=O)N(C)C5)CC4)nc23)C1", "targetUnderTest": "AAK1 (amino acids T27-A365) (Homo sapiens (Human), UniProt Q2M2I8)", "valueKind": "AAK1:GAK pSENs Selectivity", "testValue": "A (A: ≤0.015)"}

The values you see were collected from patent US20250270222A1.
